Please go through the items and note down their %Inh.
# System: HIPK2;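 further: KINOMEscan kinase panel screen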
# reported_conditions: concentration: 1 μM, replicates: in singlicate; n = 1
Numbers only, in %.

Observe how each entry below is paired with its result.
{"compound": "Cc1ccc(NC(=O)Nc2cc(C(C)(C)C)nn2-c2ccccc2)cc1", "system_name": "HIPK2", "%Inh / %": 0}
{"compound": "O=C(Nc1n[nH]c2cc(-c3cccc(F)c3F)ccc12)C1CC1", "system_name": "HIPK2", "%Inh / %": 15}
{"compound": "COc1ccc(C2=C(Nc3cccc(C(=O)O)c3)C(=O)NC2=O)cc1", "system_name": "HIPK2", "%Inh / %": 16}
{"compound": "CC1=C(C(=O)Nc2cc3cn[nH]c3cc2F)C(c2ccc(C(F)(F)F)cc2)CC(=O)N1 (stereo not drawn)", "system_name": "HIPK2", "%Inh / %": 0}
{"compound": "CN(C)CCN(C)C(=O)c1cc(-c2ccncc2)c(-c2ccc(Cl)c(O)c2)o1.Cl.Cl", "system_name": "HIPK2", "%Inh / %": 0}
{"compound": "O=S(=O)(c1ccc(-c2ccnc3[nH]ccc23)cc1)N1CCCC1", "system_name": "HIPK2", "%Inh / %": 0}
{"compound": "Cc1ccc(NC(=O)Nc2cccc(Cl)c2)cc1-c1ccc(C(=O)Nc2ccncc2)cc1", "system_name": "HIPK2", "%Inh / %": 0}
{"compound": "COc1cc2ncnc(Nc3ccc4nc(-c5ccccc5)[nH]c4c3)c2cc1OC.Cl", "system_name": "HIPK2", "%Inh / %": 0}
{"compound": "COc1ccc2nc(-c3cccc(C)n3)nc(Nc3ccncc3)c2c1", "system_name": "HIPK2", "%Inh / %": 0}
{"compound": "Cc1cc(N2Cc3ccccc3C2)nc(Nc2ccc(S(=O)(=O)N3CCOCC3)cc2)n1.Cl", "system_name": "HIPK2", "%Inh / %": 0}

Would you mind giving %Inh for every compound in the list below?
1. COc1cccc(-c2cc(-c3c[nH]nc3-c3ccccn3)ccn2)c1
2. COC(=O)c1c(-c2ccccc2)c2cc(OC)ccc2c(=O)n1Cc1ccccc1
3. O=C(Nc1n[nH]c2nc(-c3nccs3)c(Br)cc12)C1CC1
4. O=C1NC(=O)C(N2CCc3ccccc32)=C1c1ccccc1Cl
5. COc1ccccc1CNC(=O)c1cc(C(=O)c2ccccc2C)c[nH]1

[10, 11, 0, 24, 0]

Would you mind giving %Inh for every compound in the list below?
1. CS(=O)(=O)c1ccc(-c2nc3n(c2-c2ccncc2)CCC3)cc1
2. O=C(Nc1n[nH]c2nc(-c3nccs3)c(Br)cc12)C1CCCC1
3. O=C(O)COc1ncnc2cc(-c3ccc4[nH]ncc4c3)sc12

[0, 0, 47]
